Assay Target: Eukaryotic translation initiation factor 2-alpha kinase 1 (Homo sapiens, UniProt Q9BQI3); further: in the data inactive means no Kd found up to 30 µM
Sequence (Q9BQI3 whole entry): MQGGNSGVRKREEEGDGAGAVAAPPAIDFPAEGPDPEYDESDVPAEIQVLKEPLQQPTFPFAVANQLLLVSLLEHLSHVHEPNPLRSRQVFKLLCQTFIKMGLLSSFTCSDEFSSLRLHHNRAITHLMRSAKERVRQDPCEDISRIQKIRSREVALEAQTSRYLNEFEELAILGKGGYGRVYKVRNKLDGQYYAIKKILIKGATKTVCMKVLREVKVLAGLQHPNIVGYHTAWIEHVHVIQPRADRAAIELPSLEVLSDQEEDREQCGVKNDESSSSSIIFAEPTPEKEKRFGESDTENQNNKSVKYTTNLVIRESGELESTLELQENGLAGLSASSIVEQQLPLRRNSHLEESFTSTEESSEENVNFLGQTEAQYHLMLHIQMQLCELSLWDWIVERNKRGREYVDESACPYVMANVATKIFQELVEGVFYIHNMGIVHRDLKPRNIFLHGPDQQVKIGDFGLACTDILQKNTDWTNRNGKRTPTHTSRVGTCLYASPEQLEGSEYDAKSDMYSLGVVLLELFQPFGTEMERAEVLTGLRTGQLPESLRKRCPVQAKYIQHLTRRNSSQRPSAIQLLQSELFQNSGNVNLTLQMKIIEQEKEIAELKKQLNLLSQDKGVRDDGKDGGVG
The source made the active and inactive calls.
Could you please pick one outcome from this set? active, inactive

Exercise: What did the test return for COc1cc(Nc2ncc(F)c(Nc3ccc4c(n3)N(COP(=O)(O)O)C(=O)C(C)(C)O4)n2)cc(OC)c1OC [FOSTAMATINIB] ?
Solution: inactive

Exercise: What did the test return for COc1cc2nccc(Oc3ccc(NC(=O)C4(C(=O)Nc5ccc(F)cc5)CC4)cc3)c2cc1OC [CABOZANTINIB] ?
Solution: inactive

Exercise: What did the test return for CN(c1ncccc1CNc1nc(Nc2ccc3c(c2)CC(=O)N3)ncc1C(F)(F)F)S(C)(=O)=O [PF-00562271] ?
Solution: inactive

Exercise: What did the test return for Cc1c(Cn2c(C)nc3c(C(=O)O)cc(N4CCOCC4)cc32)cccc1C(F)(F)F [GSK-2636771] ?
Solution: inactive

Exercise: What did the test return for O=S(=O)(c1cccc2cnccc12)N1CCCNCC1 [FASUDIL] ?
Solution: inactive

Exercise: What did the test return for O=C(Nc1ccc(OC(F)(F)F)cc1)c1sccc1NCc1ccnc2ccccc12 [OSI-930] ?
Solution: inactive

Exercise: What did the test return for CCN1CCN(Cc2ccc(Nc3ncc(F)c(-c4cc(F)c5nc(C)n(C(C)C)c5c4)n3)nc2)CC1 [ABEMACICLIB] ?
Solution: active

Exercise: What did the test return for COc1ccc2c(OCc3nnc4ccc(-c5ccccc5)nn34)ccnc2c1 [AMG-208] ?
Solution: inactive

----------
Assay Target: Serine/threonine-protein kinase ULK1 (Homo sapiens); further: in the data inactive means no Kd found up to 30 µM
Sequence (O75385 whole entry): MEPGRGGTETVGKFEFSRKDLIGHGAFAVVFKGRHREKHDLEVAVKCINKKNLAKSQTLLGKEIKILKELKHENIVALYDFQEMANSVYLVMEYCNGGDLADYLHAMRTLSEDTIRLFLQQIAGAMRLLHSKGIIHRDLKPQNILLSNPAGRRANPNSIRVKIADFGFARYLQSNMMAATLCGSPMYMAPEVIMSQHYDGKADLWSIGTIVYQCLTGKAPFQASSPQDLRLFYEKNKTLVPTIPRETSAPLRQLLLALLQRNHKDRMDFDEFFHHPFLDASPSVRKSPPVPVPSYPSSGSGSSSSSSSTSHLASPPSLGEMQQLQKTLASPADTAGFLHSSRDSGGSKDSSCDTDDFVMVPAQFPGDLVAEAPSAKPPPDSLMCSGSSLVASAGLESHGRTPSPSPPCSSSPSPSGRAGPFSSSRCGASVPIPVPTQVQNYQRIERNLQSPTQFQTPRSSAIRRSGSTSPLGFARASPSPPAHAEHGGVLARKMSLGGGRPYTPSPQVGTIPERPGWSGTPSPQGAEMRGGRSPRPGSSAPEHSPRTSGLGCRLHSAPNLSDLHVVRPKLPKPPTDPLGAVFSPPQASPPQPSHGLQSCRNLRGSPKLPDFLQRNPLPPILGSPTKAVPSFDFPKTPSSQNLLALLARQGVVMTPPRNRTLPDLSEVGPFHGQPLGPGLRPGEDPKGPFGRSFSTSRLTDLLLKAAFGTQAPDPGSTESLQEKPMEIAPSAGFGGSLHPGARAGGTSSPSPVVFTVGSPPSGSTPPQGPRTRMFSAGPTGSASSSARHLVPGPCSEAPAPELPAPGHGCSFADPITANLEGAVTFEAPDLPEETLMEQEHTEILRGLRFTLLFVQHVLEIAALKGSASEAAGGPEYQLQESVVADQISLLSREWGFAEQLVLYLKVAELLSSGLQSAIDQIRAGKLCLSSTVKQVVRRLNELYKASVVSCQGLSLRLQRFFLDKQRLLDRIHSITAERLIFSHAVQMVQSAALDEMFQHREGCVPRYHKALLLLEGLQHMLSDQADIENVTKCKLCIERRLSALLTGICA
Active and inactive are the calls of the source.
Could you please pick one outcome from this set? active, inactive

Exercise: What did the test return for CNC(=O)c1cc(COc2nnc(Nc3ccc(Cl)cc3)c3ccoc23)ccn1 [TELATINIB] ?
Solution: inactive

Exercise: What did the test return for COc1cc(F)c(F)c(Nc2ccc(I)cc2F)c1NS(=O)(=O)C1(C[C@H](O)CO)CC1 [REFAMETINIB] ?
Solution: inactive

----------
Assay Target: Cyclin-dependent kinase 13 (Homo sapiens); further: in the data inactive means no Kd found up to 30 µM
Sequence (Q14004 whole entry): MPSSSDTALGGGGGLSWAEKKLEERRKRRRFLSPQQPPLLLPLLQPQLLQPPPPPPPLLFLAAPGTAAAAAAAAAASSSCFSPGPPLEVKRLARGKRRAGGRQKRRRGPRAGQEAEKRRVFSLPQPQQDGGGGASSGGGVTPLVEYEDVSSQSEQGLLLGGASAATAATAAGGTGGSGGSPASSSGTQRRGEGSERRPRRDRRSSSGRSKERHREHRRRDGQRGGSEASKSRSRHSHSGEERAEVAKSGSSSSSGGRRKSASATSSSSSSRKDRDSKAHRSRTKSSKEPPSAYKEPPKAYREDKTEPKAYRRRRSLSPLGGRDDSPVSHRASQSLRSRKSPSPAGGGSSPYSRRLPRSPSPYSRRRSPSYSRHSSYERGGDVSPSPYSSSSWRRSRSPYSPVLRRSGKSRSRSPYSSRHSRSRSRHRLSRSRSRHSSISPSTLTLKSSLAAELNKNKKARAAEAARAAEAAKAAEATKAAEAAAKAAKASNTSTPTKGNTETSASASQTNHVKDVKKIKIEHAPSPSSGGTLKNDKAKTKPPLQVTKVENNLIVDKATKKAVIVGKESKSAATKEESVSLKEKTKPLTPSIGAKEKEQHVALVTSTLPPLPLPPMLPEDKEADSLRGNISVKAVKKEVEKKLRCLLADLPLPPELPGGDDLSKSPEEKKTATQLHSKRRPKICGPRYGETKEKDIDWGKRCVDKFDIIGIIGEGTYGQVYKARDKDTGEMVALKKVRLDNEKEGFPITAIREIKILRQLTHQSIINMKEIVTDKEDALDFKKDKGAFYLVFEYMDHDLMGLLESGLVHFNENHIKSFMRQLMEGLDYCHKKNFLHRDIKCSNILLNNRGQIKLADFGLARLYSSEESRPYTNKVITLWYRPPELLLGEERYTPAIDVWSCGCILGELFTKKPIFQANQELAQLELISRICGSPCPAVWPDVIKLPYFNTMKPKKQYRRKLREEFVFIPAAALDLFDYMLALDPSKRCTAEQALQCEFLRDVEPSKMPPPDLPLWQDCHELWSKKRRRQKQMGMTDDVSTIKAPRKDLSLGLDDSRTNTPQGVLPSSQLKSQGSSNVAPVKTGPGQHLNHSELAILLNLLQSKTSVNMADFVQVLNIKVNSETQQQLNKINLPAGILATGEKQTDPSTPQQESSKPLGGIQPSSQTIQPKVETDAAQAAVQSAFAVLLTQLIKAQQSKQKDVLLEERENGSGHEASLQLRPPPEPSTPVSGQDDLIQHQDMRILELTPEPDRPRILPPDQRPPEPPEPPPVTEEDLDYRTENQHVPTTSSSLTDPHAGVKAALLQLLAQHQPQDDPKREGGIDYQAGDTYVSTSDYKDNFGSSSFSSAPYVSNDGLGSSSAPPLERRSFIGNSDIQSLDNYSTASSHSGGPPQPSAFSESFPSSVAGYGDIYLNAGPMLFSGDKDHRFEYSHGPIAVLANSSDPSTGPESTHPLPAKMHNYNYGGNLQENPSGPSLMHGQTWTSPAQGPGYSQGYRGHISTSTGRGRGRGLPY
Activity calls are given as the source filed them.
Could you please pick one outcome from this set? YES (active), NO (inactive)

Examples with answers:
C=CC(=O)Nc1cc(Nc2nccc(-c3cn(C)c4ccccc34)n2)c(OC)cc1N(C)CCN(C)C [OSIMERTINIB] | NO
COc1cc(F)c(F)c(Nc2ccc(I)cc2F)c1NS(=O)(=O)C1(C[C@H](O)CO)CC1 [REFAMETINIB] | NO
Cc1ccc(C(=O)Nc2ccc(Oc3cc4cnn(C)c4cc3-c3cn[nH]c3)c(F)c2)c(=O)n1-c1ccc(F)cc1 [MERESTINIB] | NO

Exercise: What did the test return for CC(C)CC(=O)Nc1[nH]nc2c1CN(C(=O)C1CCN(C)CC1)C2(C)C [PHA-793887] ?
Solution: YES

Exercise: What did the test return for Cc1cc(Nc2nc(N[C@@H](C)c3ncc(F)cn3)ncc2Cl)n[nH]1 [AZD-1480] ?
Solution: NO

Exercise: What did the test return for CCc1nc(C(N)=O)c(Nc2ccc(N3CCC(N4CCN(C)CC4)CC3)c(OC)c2)nc1NC1CCOCC1 [GILTERITINIB] ?
Solution: NO

Exercise: What did the test return for NC[C@@](O)(c1ccc(Cl)cc1)c1ccc(-c2cn[nH]c2)cc1 [AT-13148] ?
Solution: NO

----------
Calls of active or inactive are those of the source.
Kd, Tyrosine-protein kinase HCK (Homo sapiens, UniProt P08631): measured values

CCN1CCN(Cc2ccc(Nc3ncc(F)c(-c4cc(F)c5nc(C)n(C(C)C)c5c4)n3)nc2)CC1 [ABEMACICLIB] | > 30 µM (inactive)
CC[C@@](C)(Nc1ccnc(-c2c[nH]c3ncccc23)n1)C(=O)NCC(F)(F)F [DECERNOTINIB] | > 30 µM (inactive)
O=C(Nc1ccc(OC(F)(F)F)cc1)c1sccc1NCc1ccnc2ccccc12 [OSI-930] | > 30 µM (inactive)

Give one value of Kd per listed molecule.
1. COc1cccc(Nc2ncnn3ccc(CN4CC[C@@H](N)[C@H](O)C4)c23)c1 [BMS-690514]
2. C=CCN(/C=C1/C(=O)O[C@H](COC)[C@@]2(C)C1=C(O)C(=O)C1=C2[C@H](OC(C)=O)C[C@]2(C)C(=O)CC[C@@H]12)CC=C [SONOLISIB]
3. CN1CCN(c2nc(C3=C(c4c[nH]c5ccccc45)C(=O)NC3=O)c3ccccc3n2)CC1 [SOTRASTAURIN]
4. FC(F)(F)c1ccc(CNc2ccc(Cc3c[nH]c4ncc(Cl)cc34)cn2)cn1 [PEXIDARTINIB]
5. Cn1cc(-c2[nH]c3cc(NC(=O)[C@H](N)C4CCCCC4)cc4c3c2C=NNC4=O)cn1
6. CC(C)(O)CC(=O)NCCn1ccc2ncnc(Nc3ccc(Oc4cccc(C(F)(F)F)c4)c(Cl)c3)c21 [TAK-285]

Solution:
0.712 µM (active)
> 30 µM (inactive)
> 30 µM (inactive)
> 30 µM (inactive)
0.436 µM (active)
> 30 µM (inactive)

----------
Assay Target: Peroxisomal acyl-coenzyme A oxidase 3 (Homo sapiens); further: in the data inactive means no Kd found up to 30 µM
Sequence (O15254 whole entry): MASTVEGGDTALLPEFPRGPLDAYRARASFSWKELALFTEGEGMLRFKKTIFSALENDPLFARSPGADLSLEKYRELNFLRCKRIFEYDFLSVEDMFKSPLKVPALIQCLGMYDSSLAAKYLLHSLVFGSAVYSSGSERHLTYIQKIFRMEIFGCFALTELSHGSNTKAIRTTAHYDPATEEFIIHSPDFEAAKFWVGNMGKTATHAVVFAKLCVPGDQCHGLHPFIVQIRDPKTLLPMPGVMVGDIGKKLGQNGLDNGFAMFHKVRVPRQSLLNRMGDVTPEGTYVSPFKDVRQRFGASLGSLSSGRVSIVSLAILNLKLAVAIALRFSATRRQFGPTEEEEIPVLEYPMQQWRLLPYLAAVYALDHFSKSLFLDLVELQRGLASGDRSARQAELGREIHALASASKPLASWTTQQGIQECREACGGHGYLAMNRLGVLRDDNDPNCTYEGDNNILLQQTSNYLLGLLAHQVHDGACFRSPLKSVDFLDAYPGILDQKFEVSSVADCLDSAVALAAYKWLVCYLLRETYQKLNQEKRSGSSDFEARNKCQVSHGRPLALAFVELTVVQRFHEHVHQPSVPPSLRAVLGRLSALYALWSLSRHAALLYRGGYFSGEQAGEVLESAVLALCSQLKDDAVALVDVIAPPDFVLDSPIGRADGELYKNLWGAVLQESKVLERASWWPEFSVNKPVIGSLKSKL
Active and inactive are the calls of the source.
Could you please pick one outcome from this set? active, inactive

Exercise: What did the test return for CNC(=O)c1ccc(Nc2ncc(C(F)(F)F)c(NCc3nccnc3N(C)S(C)(=O)=O)n2)cc1 ?
Solution: inactive

Exercise: What did the test return for COc1cc2nccc(Oc3ccc(NC(=O)C4(C(=O)Nc5ccc(F)cc5)CC4)cc3)c2cc1OC [CABOZANTINIB] ?
Solution: inactive

Exercise: What did the test return for CC(C)CC(=O)Nc1[nH]nc2c1CN(C(=O)C1CCN(C)CC1)C2(C)C ?
Solution: inactive

Exercise: What did the test return for CCc1cc2c(cc1N1CCC(N3CCOCC3)CC1)C(C)(C)c1[nH]c3cc(C#N)ccc3c1C2=O ?
Solution: active

Exercise: What did the test return for S=C(NCc1ccc2c(c1)OCO2)N1CCN(c2ncnc3c2oc2ccccc23)CC1 ?
Solution: inactive
